The measurements presented in this section are drawn from PubChem BioAssay AID624354.

Assay: viability loss with TRAIL in NB7+C8 cells, primary screen, TRAIL sensitizer project, cell-based, ATPlite luminescence (AID 624354)
Details: at 10 µM, hits give high values
Hit rate of the full screen: of about 360,000 compounds, about 3,800 (1.1%) were called active. Only a selection was taken, and actives are over-represented in it overall.
Examples of molecules with documented inhibition (viability loss, TRAIL sensitization) follow.
Provide only the numeric value, understood in %.

Use the examples below as a reference point.
>>> reported("CC(CC(=O)N1CCN(c2ccccc2)CC1)S(=O)(=O)c1ccc2c(c1)NC(=O)CS2 (stereo not given)")
23.3
>>> reported("CN(C(=O)CSc1nnc(-c2ccc3c(c2)OCO3)o1)C1CCS(=O)(=O)C1 (stereo not given)")
-7.74
>>> reported("COc1ccc(NC(=O)c2ccc(C#CC(C)(C)O)cc2)cc1")
0.194
>>> reported("CC(=O)Nc1ccc(S(=O)(=O)NC(C)C(=O)OCCOc2ccc(F)cc2)cc1 (stereo not given)")
-1.76
>>> reported("Cc1ccc(-c2nc(-c3cccnc3)sc2CC(=O)Nc2ccc(C)c(Cl)c2)cc1")
18.7

I have this molecule here, O=CNc1cc(-c2ccc(C(=O)N3CCOCC3)cc2)cn2c(-c3ccc(F)cc3)cnc12 , and I need its recorded inhibition (viability loss, TRAIL sensitization).
19.1

I have this molecule here, Cc1cccc(NS(=O)(=O)c2cccc(C(=O)NNC(=O)c3ccccc3O)c2)c1 , and I need its recorded inhibition (viability loss, TRAIL sensitization).
24.7

I have this molecule here, CC(C)Nc1ccc(-n2nc3ccccc3[n+]2[O-])cc1 , and I need its recorded inhibition (viability loss, TRAIL sensitization).
54.6

I have this molecule here, Cc1ccccc1C(OCCN(C)C)C1CCCCC1 (stereo not given) , and I need its recorded inhibition (viability loss, TRAIL sensitization).
-0.767

I have this molecule here, CCc1nc2ccc(C(=O)Nc3cccc(OC)c3)cn2c1N(CCC(C)C)CCN(C)C , and I need its recorded inhibition (viability loss, TRAIL sensitization).
15.5

I have this molecule here, COC(=O)CCSc1nccn1Cc1ccccc1 , and I need its recorded inhibition (viability loss, TRAIL sensitization).
-2.49

I have this molecule here, COc1ccccc1NC1=NC(c2ccc(Cl)cc2)N=C(N)N1 (stereo not given) , and I need its recorded inhibition (viability loss, TRAIL sensitization).
-3.71

I have this molecule here, CCCCc1c(-c2ccc(Cl)cc2)ncn1CCc1ccccc1OC , and I need its recorded inhibition (viability loss, TRAIL sensitization).
31.8

I have this molecule here, CCN(CC(=O)Nc1ccc(C)c(S(=O)(=O)N(C)C)c1)Cc1ccccc1 , and I need its recorded inhibition (viability loss, TRAIL sensitization).
9.33

I have this molecule here, O=C(NNC(=O)c1cc(S(=O)(=O)N2CCCCC2)ccc1Cl)c1ccccc1O , and I need its recorded inhibition (viability loss, TRAIL sensitization).
14

---

Assay: viability loss with TRAIL in NB7+C8 cells, primary screen, TRAIL sensitizer project, cell-based, ATPlite luminescence (AID 624354)
Settings: at 10 µM
About 3,800 (1.1%) of roughly 360,000 compounds were called active.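 How the source made its calls: active means compounds causing at least 50% loss of cell viability in the single-dose screen, relative to plate controls; inactive means the rest.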 What follows is part of a selection rich in actives, with near analogues and random picks from the rest.
Respond only with the outcome that fits, drawn from active, inactive

>>> category_label("O=C(c1ccc(F)cc1)N1CCC(n2nnc3ccccc32)CC1")
"inactive"
>>> category_label("O=c1ccn([C@@H]2O[C@H](CNS(=O)(=O)c3cc4ccccc4s3)[C@@H](O)[C@H]2O)c(=O)[nH]1")
"inactive"
>>> category_label("Cc1c(Br)c([N+](=O)[O-])nn1CC(=O)N1CCN(Cc2ccccc2)CC1")
"inactive"
>>> category_label("CCOCCCN(C(=O)Cn1nnc(-c2ccc(OC)c(OC)c2)n1)C(CC)C(=O)NC1CCCC1 (configuration not stated)")
"inactive"
>>> category_label("CCCNC(=O)c1cc(C2CCCCN2C(=O)OC)on1 (configuration not stated)")
"inactive"
>>> category_label("O=C(c1ccc(F)cc1)n1c(=S)nc2ccccn21")
"active"

Answer briefly: the call reported for O=C(COC(=O)/C=C/c1ccc(OC(F)F)cc1)NC1CCCCC1 in this assay.
inactive

Answer briefly: the call reported for C=CCN(CC=C)C(=O)COC(=O)c1n[nH]c2ccccc12 in this assay.
inactive

Answer briefly: the call reported for Cc1ccc(SC(=O)COc2ccc(C)c(C)c2)cc1 in this assay.
inactive

Answer briefly: the call reported for Cc1cccc2c1-c1sc(C(=O)NCCCN3CCc4ccccc4C3)cc1CO2 in this assay.
inactive

Answer briefly: the call reported for CCOc1ccc(/C=C(/NC(=O)c2ccccc2)C(=O)NCCC(=O)O)cc1 in this assay.
inactive
